assay: Experimental LogD (partition coefficient)
appliedConditions: not stated, Partition Coeff LogD
Positions of bridges follow the written chain, without caps; N, C: chain ends. Non-standard residues stand in square brackets, D forms with d. Residues, ends and D or L forms follow the SMILES beside them. Lys(N3) = [N-]=[N+]=NCCCC[C@H](N)C(=O)O; R8 = C=CCCCCCC[C@@](C)(N)C(=O)O; Cba = N[C@@H](CC1CCC1)C(=O)O; S5 = C=CCCC[C@](C)(N)C(=O)O; βAla = NCCC(=O)O
measurementType: logD

Sample records with logD:
CC(=O)N[C@@H](CCCCN=[N+]=[N-])C(=O)NCCC(=O)N[C@@H](C)C(=O)N[C@H](C(=O)N[C@@H](Cc1ccccc1)C(=O)N[C@]1(C)CCCCCCC=CCCC[C@@](C)(C(=O)N[C@@H](CO)C(=O)N[C@@H](C)C(=O)N[C@@H](C)C(N)=O)NC(=O)[C@H](CC2CCC2)NC(=O)[C@H](CCC(N)=O)NC(=O)[C@H](C)NC(=O)[C@H](Cc2c[nH]c3ccccc23)NC(=O)[C@H](Cc2ccc(O)cc2)NC(=O)[C@H](CCC(=O)O)NC1=O)[C@@H](C)O [MP-952, AZIDE-ATSP-7041 (L1A)] = 2.73
CC(=O)N[C@@H](CCCNC(=N)N)C(=O)N[C@@H](CCCNC(=N)N)C(=O)NCCCCCC(=O)N[C@@H](CCCCN=[N+]=[N-])C(=O)N[C@@H](CC(C)C)C(=O)N[C@H](C(=O)N[C@@H](Cc1ccccc1)C(=O)N[C@]1(C)CCCCCCC=CCCC[C@@](C)(C(=O)N[C@@H](CO)C(=O)N[C@@H](C)C(=O)N[C@@H](C)C(N)=O)NC(=O)[C@H](CC2CCC2)NC(=O)[C@H](CCC(N)=O)NC(=O)[C@H](C)NC(=O)[C@H](Cc2c[nH]c3ccccc23)NC(=O)[C@H](Cc2ccc(O)cc2)NC(=O)[C@H](CCC(=O)O)NC1=O)[C@@H](C)O [MP-007] = 2.83
CC(=O)N[C@@H](CCCCN=[N+]=[N-])C(=O)NCCC(=O)N[C@@H](CC(C)C)C(=O)N[C@H](C(=O)N[C@@H](CCC(=O)O)C(=O)N[C@]1(C)CCCCCCC=CCCC[C@@](C)(C(=O)N[C@@H](CO)C(=O)N[C@@H](C)C(=O)N[C@@H](C)C(N)=O)NC(=O)[C@H](CC2CCC2)NC(=O)[C@H](CCC(N)=O)NC(=O)[C@H](C)NC(=O)[C@H](Cc2c[nH]c3ccccc23)NC(=O)[C@H](Cc2ccc(O)cc2)NC(=O)[C@H](Cc2ccccc2)NC1=O)[C@@H](C)O [MP-123] (Ac-[Lys(N3)][βAla]LTE[R8]FYWAQ[Cba][S5]SAA-NH2; staple 6-13) = 2.66

Here is another compound to look at.
Q: Recorded logD for CC(=O)N[C@@H](CCCCN=[N+]=[N-])C(=O)NCCC(=O)N[C@@H](CC(C)C)C(=O)N[C@H](C(=O)N[C@@H](Cc1ccccc1)C(=O)N[C@]1(C)CCCCCCC=CCCC[C@@](C)(C(=O)NCC(=O)N[C@@H](C)C(=O)N[C@@H](C)C(N)=O)NC(=O)[C@H](CC2CCC2)NC(=O)[C@H](CCC(N)=O)NC(=O)[C@H](C)NC(=O)[C@H](Cc2c[nH]c3ccccc23)NC(=O)[C@H](Cc2ccc(O)cc2)NC(=O)[C@H](CCC(=O)O)NC1=O)[C@@H](C)O [MP-798] (Ac-[Lys(N3)][βAla]LTF[R8]EYWAQ[Cba][S5]GAA-NH2; staple 6-13) , please?
Result: 2.79
